Target or test system: human tankyrase 1 PARP catalytic domain, TNKS1P (Homo sapiens (Human))
Sequence (O95271 1112-1317): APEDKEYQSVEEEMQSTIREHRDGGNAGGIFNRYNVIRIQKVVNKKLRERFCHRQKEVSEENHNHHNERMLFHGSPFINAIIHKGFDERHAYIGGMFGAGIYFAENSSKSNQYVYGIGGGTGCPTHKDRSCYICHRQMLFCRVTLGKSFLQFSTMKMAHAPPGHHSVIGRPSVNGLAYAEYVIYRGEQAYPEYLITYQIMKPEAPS
Test details: TNKS1 autoparsylation assay (LC/MS detection of nicotinamide)
Assay setup: read-out: TNKS1 AP IC50, 20 nM enzyme, 250 μM β-NAD+, 60 min
IC50 strictly under 40 nM means TRUE; at 40 nM or over means FALSE.

- Smiles text: "O=C(c1ccc(F)cc1)C1CCN(CC(=O)N(Cc2nc3c(c(=O)[nH]2)COCC3)C[C@@H]2CCCO2)CC1"
  Classification: "TRUE"
- Smiles text: "C[C@H](C1CC1)N(Cc1nc2c(c(=O)[nH]1)COCC2)C(=O)CN1CCC(C(=O)c2ccc(F)cc2)CC1"
  Classification: "TRUE"
- Smiles text: "O=C(c1ccc(OCc2ccccc2)cc1)C1CCN(CC(=O)N(Cc2nc3c(c(=O)[nH]2)COCC3)CC2CC2)CC1"
  Classification: "FALSE"
- Smiles text: "CC[C@H](C)N(Cc1nc2c(c(=O)[nH]1)COCC2)C(=O)CN1CCC(C(=O)c2ccc(F)cc2)CC1"
  Classification: "TRUE"
- Smiles text: "O=C(c1ccc(F)cc1)C1CCN(CC(=O)N(Cc2nc3c(c(=O)[nH]2)COCC3)CC(F)F)CC1"
  Classification: "TRUE"
- Smiles text: "O=C(c1ccc(F)cc1)C1CCN(CC(=O)N(Cc2nc3c(c(=O)[nH]2)COCC3)Cc2ccccc2F)CC1"
  Classification: "FALSE"
- Smiles text: "CC(C)N(Cc1nc2c(c(=O)[nH]1)COCC2)C(=O)CN1CCC(C(=O)c2ccc(F)cc2)CC1"
  Classification: "FALSE"
- Smiles text: "O=C(c1ccc(F)cc1)C1CCN(CC(=O)N(Cc2nc3c(c(=O)[nH]2)COCC3)Cc2nc3ccccc3s2)CC1"
  Classification: "FALSE"
- Smiles text: "C[C@H](c1ccccc1)N(Cc1nc2c(c(=O)[nH]1)COCC2)C(=O)CN1CCC(C(=O)c2ccc(F)cc2)CC1"
  Classification: "FALSE"
- Smiles text: "O=C(c1ccc(F)cc1)C1CCN(CC(=O)N(Cc2nc3c(c(=O)[nH]2)COCC3)CC2CC2)CC1"
  Classification: "TRUE"
- Smiles text: "O=C(c1ccccn1)C1CCN(CC(=O)N(Cc2nc3c(c(=O)[nH]2)COCC3)CC2CC2)CC1"
  Classification: "FALSE"
- Smiles text: "CCOc1ccc(C(=O)C2CCN(CC(=O)NCc3nc4c(c(=O)[nH]3)COCC4)CC2)cc1F"
  Classification: "TRUE"
- Smiles text: "O=C(CN1CCC(C(=O)N2CCc3c(Cl)cccc3C2)CC1)NCc1nc2c(c(=O)[nH]1)COCC2"
  Classification: "FALSE"
- Smiles text: "CCCN(Cc1nc2c(c(=O)[nH]1)COCC2)C(=O)CN1CCC(C(=O)c2ccc(F)cc2)CC1"
  Classification: "FALSE"
- Smiles text: "O=C(c1ccc(F)cc1)C1CCN(CC(=O)N(Cc2nc3c(c(=O)[nH]2)COCC3)Cc2cccs2)CC1"
  Classification: "TRUE"
